Values were extracted from patent US10221197B2.

target: PI3Kβ (Homo sapiens (Human), UniProt P42338); test: TR-FRET enzymatic assay of PI3K isoforms (PI3Kβ); details: TR-FRET, 2×Km ATP, 2 μM PIP2, incubated for 30 minutes at 25° C.; read-out: β IC50
Sequence (P42338 whole entry, canonical isoform): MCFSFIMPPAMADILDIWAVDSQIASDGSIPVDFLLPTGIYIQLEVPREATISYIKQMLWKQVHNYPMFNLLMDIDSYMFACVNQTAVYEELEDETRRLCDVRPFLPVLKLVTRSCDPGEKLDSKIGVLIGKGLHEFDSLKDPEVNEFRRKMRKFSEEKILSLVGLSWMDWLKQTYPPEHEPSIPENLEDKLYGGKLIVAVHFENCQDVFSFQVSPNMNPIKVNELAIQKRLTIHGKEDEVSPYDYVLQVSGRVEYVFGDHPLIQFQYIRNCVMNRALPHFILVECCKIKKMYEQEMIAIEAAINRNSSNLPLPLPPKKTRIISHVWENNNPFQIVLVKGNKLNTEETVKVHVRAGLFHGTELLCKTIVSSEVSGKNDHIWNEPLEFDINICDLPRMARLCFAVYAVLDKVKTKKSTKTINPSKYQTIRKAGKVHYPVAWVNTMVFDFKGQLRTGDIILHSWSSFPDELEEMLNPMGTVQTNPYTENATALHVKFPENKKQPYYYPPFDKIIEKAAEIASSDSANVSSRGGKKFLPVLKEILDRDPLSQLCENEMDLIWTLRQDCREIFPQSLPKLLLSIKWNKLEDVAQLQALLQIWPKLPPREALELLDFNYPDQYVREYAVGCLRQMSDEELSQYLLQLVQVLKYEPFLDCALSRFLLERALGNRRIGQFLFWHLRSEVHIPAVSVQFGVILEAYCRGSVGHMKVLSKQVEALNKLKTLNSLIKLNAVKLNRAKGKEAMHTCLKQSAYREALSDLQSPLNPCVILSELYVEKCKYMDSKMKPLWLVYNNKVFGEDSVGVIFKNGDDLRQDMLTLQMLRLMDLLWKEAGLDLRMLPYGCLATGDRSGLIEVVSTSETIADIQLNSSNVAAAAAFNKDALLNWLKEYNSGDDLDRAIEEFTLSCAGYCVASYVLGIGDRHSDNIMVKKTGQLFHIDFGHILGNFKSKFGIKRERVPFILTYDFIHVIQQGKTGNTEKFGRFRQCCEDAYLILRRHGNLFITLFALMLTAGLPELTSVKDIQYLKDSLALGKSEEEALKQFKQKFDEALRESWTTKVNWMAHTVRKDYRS
Sequence (P27986 whole entry partner, canonical isoform): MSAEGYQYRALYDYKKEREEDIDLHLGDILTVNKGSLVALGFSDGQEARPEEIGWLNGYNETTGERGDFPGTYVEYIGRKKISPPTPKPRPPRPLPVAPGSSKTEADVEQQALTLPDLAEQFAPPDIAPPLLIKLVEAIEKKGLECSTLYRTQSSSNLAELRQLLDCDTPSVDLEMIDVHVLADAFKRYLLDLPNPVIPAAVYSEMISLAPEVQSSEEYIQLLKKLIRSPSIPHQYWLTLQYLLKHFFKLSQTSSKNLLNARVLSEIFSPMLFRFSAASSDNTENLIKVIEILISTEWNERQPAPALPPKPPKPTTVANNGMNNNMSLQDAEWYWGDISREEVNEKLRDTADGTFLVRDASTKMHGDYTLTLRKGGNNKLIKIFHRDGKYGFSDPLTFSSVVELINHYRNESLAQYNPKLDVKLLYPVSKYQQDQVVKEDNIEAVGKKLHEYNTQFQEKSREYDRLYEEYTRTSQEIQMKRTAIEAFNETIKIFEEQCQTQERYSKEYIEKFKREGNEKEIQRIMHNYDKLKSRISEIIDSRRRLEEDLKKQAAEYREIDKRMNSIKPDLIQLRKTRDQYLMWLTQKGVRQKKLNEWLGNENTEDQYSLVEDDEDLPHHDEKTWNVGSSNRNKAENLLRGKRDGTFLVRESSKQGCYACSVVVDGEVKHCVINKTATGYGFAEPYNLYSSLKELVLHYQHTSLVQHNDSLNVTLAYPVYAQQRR
pIC50: −log10 of the molar value.
Endpoint Name: pIC50

CCNC(=O)Nc1cccc(-n2c([C@H](C)Nc3ncnc(N)c3C#N)nc3cc(F)ccc3c2=O)c1 : 5.59
CC(Oc1ncnc2scnc12)c1nc2cccc(Cl)c2c(=O)n1-c1cccc(NC(=O)Nc2ccccc2Cl)c1 (centres unmarked) : 7.39
C[C@H](Nc1ncnc(N)c1C#N)c1nc2cccc(Cl)c2c(=O)n1-c1cccc(NC(=O)NC(C)(C)C(=O)O)c1 : 7.52
CCNC(=O)Nc1cccc(-n2c([C@H](C)Nc3nc(C)nc(N)n3)nc3cccc(Cl)c3c2=O)c1 : 7.15
CCNC(=O)Nc1cccc(-n2c([C@H](C)Nc3ncnc(N)c3C#N)nc3cccc(Cl)c3c2=O)c1Cl (single isomer, unassigned) [Compound 95] : 7.23
C[C@H](Nc1nc(N)nc(N)c1Cl)c1nc2c(Cl)cc(F)cc2c(=O)n1-c1cccc(C(N)=O)c1 : 6.60
C[C@H](Oc1ncnc2scnc12)c1nc2cccc(Cl)c2c(=O)n1-c1cccc(NC(=O)NC2CCCC2)c1 : 7.24
CCNC(=O)Nc1cccc(-n2c([C@H](C)Nc3ncnc(N)c3C(=O)O)nc3cccc(Cl)c3c2=O)c1 : 5.74
C[C@H](Nc1ncnc(N)c1C#N)c1nc2cccc(Cl)c2c(=O)n1-c1cccc(NC(=O)NC2CCC2)c1 : 8.15
CCNC(=O)Nc1cccc(-n2c([C@H](C)Nc3ncnc(N)c3C#N)nc3cccc(Cl)c3c2=O)c1 : 8.30

1 = O=C(NCCCO)Nc1cccc(-n2c([C@H](COCc3ccccc3)Nc3ncnc4[nH]cnc34)nc3cccc(Cl)c3c2=O)c1
2 = C[C@H](Nc1ncnc(N)c1C#N)c1nc2cccc(Cl)c2c(=O)n1-c1cccc(NC(=O)Nc2cc(C(C)(C)C)on2)c1
[Q] Form field 'greater pIC50' accepts 1 or 2 ; which applies? Respond using the label that marks the chosen record.
[A] 2
